- System: SK-MEL-28 melanoma
- ASSAY INFO: NCI tumour cell line growth inhibition, 48 h; in the data active = GI50 below about 0.43 µM; inactive = the rest
Possible outcomes: t (active), f (inactive)

[
  {
    "COMPOUND": "N#Cc1ccc(OC(=O)Nc2ccc(Cl)c(Cl)c2)cc1",
    "LABEL VALUE": "f"
  },
  {
    "COMPOUND": "Nc1ccccc1SC1CC(=O)N(c2ccc(Cl)c(Cl)c2)C1=O (stereo not drawn)",
    "LABEL VALUE": "f"
  },
  {
    "COMPOUND": "O=C1C(Cl)=C(Nc2ccccc2O)C(=O)N1Cc1ccccc1",
    "LABEL VALUE": "f"
  },
  {
    "COMPOUND": "O=C(OCc1ccc2c(Cl)cc(Cl)c(O)c2n1)N1CCN(C(=O)c2cc3cc(F)ccc3[nH]2)CC1",
    "LABEL VALUE": "f"
  },
  {
    "COMPOUND": "COC(=O)CCC1=C(CC(=O)OC)C(C)=N/C1=C\\c1[nH]c(-c2ccc[nH]2)cc1OC",
    "LABEL VALUE": "f"
  },
  {
    "COMPOUND": "COC(C(=O)[C@@H](O)[C@@H](C)O)[C@@H]1Cc2cc3cc(O[C@H]4C[C@@H](O[C@H]5C[C@@H](O)[C@H](O)C(C)O5)[C@H](O)C(C)O4)c(C)c(O)c3c(O)c2C(=O)[C@H]1O[C@H]1C[C@@H](O[C@H]2C[C@@H](O[C@H]3C[C@@H](O)[C@H](OC)C(C)O3)[C@@H](O)C(C)O2)[C@H](O)C(C)O1 (stereo partly drawn)",
    "LABEL VALUE": "t"
  },
  {
    "COMPOUND": "O=c1oc2ccc(Br)cc2c(=O)n1-c1ccc(F)cc1F",
    "LABEL VALUE": "f"
  },
  {
    "COMPOUND": "COC(=O)c1cc(/C=C/c2ccc(S(N)(=O)=O)cc2)ccc1O",
    "LABEL VALUE": "f"
  },
  {
    "COMPOUND": "O=C(Nc1ccc(Cl)c(Cl)c1)Nc1ccccc1O",
    "LABEL VALUE": "f"
  },
  {
    "COMPOUND": "C=CCN1CC2CON(C(=O)C(OC)(c3ccccc3)C(F)(F)F)C2C1C(C)C (stereo not drawn)",
    "LABEL VALUE": "f"
  },
  {
    "COMPOUND": "O=C(CSC(c1ccccc1)c1ccccc1)N/N=C/c1ccco1",
    "LABEL VALUE": "f"
  },
  {
    "COMPOUND": "C[C@]12CC[C@@H]3c4ccc(O)c([N+](=O)[O-])c4CC[C@H]3[C@@H]1CC[C@@H]2NS(=O)(=O)c1cccc(Br)c1",
    "LABEL VALUE": "f"
  },
  {
    "COMPOUND": "CCN(CC)c1cc2oc3cc(N)cc(=N)c-3nc2cc1C",
    "LABEL VALUE": "f"
  }
]

###

Below, each of the molecules is paired with its reported log10(TGI) value.
- Test system: SK-MEL-5 melanoma
- ASSAY INFO: NCI tumour cell line growth inhibition, 48 h
METRIC NAME: log10(TGI) (log10 of the value in µM)

[
  {
    "MOLECULE": "OC1(c2ccc(Cl)cc2)c2ccc(CN3CCCC3)cc2C2=NCCN21 (configuration not stated)",
    "TARGET ENTITY": "SK-MEL-5 melanoma",
    "log10(TGI)": 1.35
  },
  {
    "MOLECULE": "O=C(N/N=C/c1ccc([N+](=O)[O-])o1)c1ccc(O)cc1",
    "TARGET ENTITY": "SK-MEL-5 melanoma",
    "log10(TGI)": 0.46
  },
  {
    "MOLECULE": "O=C1CC(Sc2nc3ccc(I)cc3c(=O)n2Cc2ccccc2)C(=O)NN1 (configuration not stated)",
    "TARGET ENTITY": "SK-MEL-5 melanoma",
    "log10(TGI)": 1.47
  },
  {
    "MOLECULE": "COc1ccccc1N1CCN(CCCNC(=O)c2cc(Cl)c(N)c(Cl)c2)CC1",
    "TARGET ENTITY": "SK-MEL-5 melanoma",
    "log10(TGI)": 1.52
  },
  {
    "MOLECULE": "Clc1ccc(Cl)c(SCCCN2CCNCC2)c1",
    "TARGET ENTITY": "SK-MEL-5 melanoma",
    "log10(TGI)": 1.52
  }
]
